The reported measurements were obtained from ChEMBL document CHEMBL1123556.

- System: Bacillus subtilis
- assay details: In vitro antibacterial activity against Bacillus subtilis ATCC 6633
- Assay type: functional
Classify: condition met when MIC is strictly less than 0.4 µg/mL; condition not met when MIC is not.

structure as smiles | target system | answer label
CCn1cc(C(=O)O)c(=O)c2cc(F)c(-n3cnc(/C=N/O)c3)c(F)c21 | Bacillus subtilis | condition not met
CCn1cc(C(=O)O)c(=O)c2cc(F)c(-n3cnc(CO)c3)c(F)c21 | Bacillus subtilis | condition not met
CCn1cc(C(=O)O)c(=O)c2cc(F)c(-n3cccc3)c(F)c21 | Bacillus subtilis | condition met
CCn1cc(C(=O)O)c(=O)c2cc(F)c(-n3cnc(Br)c3)c(F)c21 | Bacillus subtilis | condition met

###

- Tested on: Salmonella paratyphi
- assay details: microbe, parasite or virus in culture
- Type: functional, Salmonella enterica subsp. enterica serovar Paratyphi A
- cond: Salmonella enterica
- Description: In vitro antibacterial activity against Salmonella paratyphi 1015

structure as smiles | MIC (µg/mL)
CCn1cc(C(=O)O)c(=O)c2cc(F)c(-n3cnc(CO)c3)c(F)c21 | 0.39
CCn1cc(C(=O)O)c(=O)c2cc(F)c(-n3ccnc3)cc21 | 0.1
CCn1cc(C(=O)O)c(=O)c2cc(F)c(-n3ccnc3C)c(F)c21 | 0.39
CCn1cc(C(=O)O)c(=O)c2cc(F)c(-n3cccc3)c(F)c21 | 0.2
CCn1cc(C(=O)O)c(=O)c2cc(F)c(-n3cnnc3)cc21 | 3.13
CCn1cc(C(=O)O)c(=O)c2cc(F)c(-n3ccnc3)c(OC)c21 | 0.1

###

- assay details: Concentrations in serum after 30 minutes at 50 mg / kg oral administration
- Format: ADME, cell-free
Values of concentration at 0.5 h strictly less than 10000 ng/mL map to met, and values of at least 10000 ng/mL map to not met.

structure as smiles | answer label
CCn1cc(C(=O)O)c(=O)c2cc(F)c(-n3cccc3)cc21 | met
CCn1cc(C(=O)O)c(=O)c2cc(F)c(-n3cnc(C)c3)c(F)c21 | not met
CCn1cc(C(=O)O)c(=O)c2cc(F)c(N3CCNCC3)cc21 | met
CCn1cc(C(=O)O)c(=O)c2cc(F)c(-n3cccc3)c(F)c21 | not met
CCn1cc(C(=O)O)c(=O)c2cc(F)c(-n3ccnc3)c(F)c21 | not met
CCn1cc(C(=O)O)c(=O)c2cc(F)c(-n3ccnc3)cc21 | met

###

- Tested on: Salmonella paratyphi
- assay details: microbe, parasite or virus in culture
- Type: functional, Salmonella enterica subsp. enterica serovar Paratyphi A
- cond: Salmonella enterica
Labelling field: enter 1 if recorded MIC is less than 3 µg/mL. Enter 0 if it equals or exceeds that cut-off.

compound | target system | answer label
CCn1cc(C(=O)O)c(=O)c2cc(F)c(-n3cnc4ccccc43)c(F)c21 | Salmonella paratyphi | 1
CCn1cc(C(=O)O)c(=O)c2cc(F)c(-n3cccc3)cc21 [IRLOXACIN] | Salmonella paratyphi | 1
CCn1cc(C(=O)O)c(=O)c2cc(F)c(-n3cnc(CN(C)C)c3)c(F)c21 | Salmonella paratyphi | 0
CCn1cc(C(=O)O)c(=O)c2cc(F)c(-n3cnc(C(=O)N(C)C)c3)c(F)c21 | Salmonella paratyphi | 0
CCn1cc(C(=O)O)c(=O)c2cc(F)c(-n3cnc4c3CCCC4)c(F)c21 | Salmonella paratyphi | 0
CCn1cc(C(=O)O)c(=O)c2cc(F)c(-n3cnc(C(=O)OC)c3)c(F)c21 | Salmonella paratyphi | 0
CCn1cc(C(=O)O)c(=O)c2cc(F)c(-n3ccnc3)c(SC)c21 | Salmonella paratyphi | 1
CCn1cc(C(=O)O)c(=O)c2cc(F)c(-n3cnc(/C=N/O)c3)c(F)c21 | Salmonella paratyphi | 1
CCn1cc(C(=O)O)c(=O)c2cc(F)c(-n3cccn3)cc21 | Salmonella paratyphi | 1
CCn1cc(C(=O)O)c(=O)c2cc(F)c(-n3cnc([N+](=O)[O-])c3)c(F)c21 | Salmonella paratyphi | 1
